tested on: DU-145; assay: NCI tumour cell line growth inhibition, 48 h
Activity calls are given as the source filed them. No stated cut-off is given here; in the data, active = GI50 up to about 1.1 µM and inactive = higher. Peptide text beside a SMILES is read from it. * marks the point of attachment. Cbz = O=C(OCc1ccccc1)*; CH2Cl = ClC*
assayReadout: GI50

CC(C)CC(NC(=O)OCc1ccccc1)C(=O)NC(Cc1ccccc1)C(=O)CCl (stereo not drawn) (Cbz-Leu-Phe-CH2Cl; configuration not given here)    > 100 µM (inactive)
O=C(O)CCC(=O)c1ccc[nH]1    > 100 µM (inactive)
CC(=O)O[C@@H]1[C@H]2O[C@H]2[C@H]2O[C@@]2(COC(=O)c2ccccc2)[C@H]1OC(C)=O    73.5 µM (inactive)
N#Cc1c(N2CCCC2)nsc1Nc1ccc(F)cc1    > 100 µM (inactive)
C=CCNC(=S)N/C=C(\C#N)C(N)=O    > 100 µM (inactive)
COc1ccc(-c2c(=O)[nH]n3c(=S)[nH]c(-c4ccccc4)nc23)cc1OC    23 µM (inactive)
COC(=O)C1=C2SCc3ccc(cc3)CSC3=C(C(=O)OC)SC(=C(S2)S1)S3    > 100 µM (inactive)
COC(=O)[C@H](C)NC(=O)[C@H](NS(=O)(=O)c1nc2ccccc2s1)c1ccccc1    15.2 µM (inactive)
CC(C)Oc1c(-c2ccc(F)cc2)c(O)c2c3c1oc(=O)n3C=CC2C (stereo not given)    13.1 µM (inactive)
CCCc1n[nH]c(=O)n1N1C(=O)C=CC1=O    > 100 µM (inactive)
